src = paper PMC4700511

- System: E. coli DH10B pBCSK(−) producing R228Y
- assay: MIC by agar dilution, E. coli DH10B pBCSK
- Assay type: cell-based
- settings: Escherichia coli, MHA
# MIC annotations
metric_name: MIC (µg/mL)

1. CC(=O)OCC1=C(C(=O)O)N2C(=O)[C@@H](NC(=O)Cc3cccs3)[C@H]2SC1    256
2. CO/N=C(\C(=O)N[C@@H]1C(=O)N2C(C(=O)O)=C(COC(C)=O)CS[C@H]12)c1csc(N)n1    16
3. CC(C)(O/N=C(\C(=O)N[C@@H]1C(=O)N2C(C(=O)[O-])=C(C[n+]3ccccc3)CS[C@H]12)c1csc(N)n1)C(=O)O    64
